Give measured pKi for each item. Keep answers brief.
target: D(1A) dopamine receptor (Rattus norvegicus); experiment: Displacement of [3H]-SCH 23390 from dopamine D1 receptor in rat striatal membranes after 1 hr by liquid scintillation counting analysis; format: cell membranes, Membrane; conditions: read-out: Ki
Sequence (P18901 whole entry): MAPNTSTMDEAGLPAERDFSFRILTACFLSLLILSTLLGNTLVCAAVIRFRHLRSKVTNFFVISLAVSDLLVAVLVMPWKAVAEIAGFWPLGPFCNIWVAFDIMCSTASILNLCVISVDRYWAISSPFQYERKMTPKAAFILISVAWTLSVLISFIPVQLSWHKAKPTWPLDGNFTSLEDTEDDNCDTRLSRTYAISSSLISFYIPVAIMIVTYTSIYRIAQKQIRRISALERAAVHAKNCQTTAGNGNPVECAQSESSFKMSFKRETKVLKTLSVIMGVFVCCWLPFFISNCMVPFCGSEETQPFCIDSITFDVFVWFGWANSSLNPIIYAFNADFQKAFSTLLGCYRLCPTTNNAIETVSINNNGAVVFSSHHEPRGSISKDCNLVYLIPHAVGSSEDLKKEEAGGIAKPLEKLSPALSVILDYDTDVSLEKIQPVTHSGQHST
One number for each entry, as −log10 of the molar value.

molecule: Oc1cccc2c1CN1CCc3cc4c(cc3C1C2)OCO4 (stereo not drawn)
test target: D(1A) dopamine receptor (Rattus norvegicus)
pKi: 6.46
//
molecule: COc1ccc2c(c1)CC1c3cc(OCc4ccccc4)c(OCc4ccccc4)cc3CCN1C2 (stereo not drawn)
test target: D(1A) dopamine receptor (Rattus norvegicus)
pKi: 4.39

Consider now this further molecule.
Summary for this molecule, COc1ccc2c(c1)CC1c3cc(OC)c(Cl)cc3CCN1C2 (stereo not drawn) : pKi is 5.74

Where do the numbers come from? From ChEMBL document CHEMBL2424523.
